System: AdipoR1
protocol text: Measurement of AMPK phosphorylation ability (Assay 2), C2C12 cells with unrelated or AdipoR1 siRNA
Type: cell-based, Mouse
experimental context: unrelated siRNA
quantity measured: pAMPK/AMPK (ratio) siRNA, unrelated siRNA
Give your result in ratio as a bare value.

Some solved entries appear below for comparison.
Inquiry: Give me measured pAMPK/AMPK (ratio) siRNA, unrelated siRNA, please, for this compound: O=C(NC1CCCC1)c1ccc(OC2CCN(Cc3ccoc3)CC2)c(Cl)c1 [No. 268508]
Reply text: 2.58

Inquiry: Read the entry COc1ccccc1N1CCN(CCC(=O)Nc2cccc(Cl)c2)CC1 [No. 189474] and write its reported pAMPK/AMPK (ratio) siRNA, unrelated siRNA.
Reply text: 2.00

Inquiry: Could you please provide reported pAMPK/AMPK (ratio) siRNA, unrelated siRNA for COCCNC(=O)c1ccc(OC2CCN(Cc3ccc(OC)cc3F)CC2)c(Cl)c1 [No. 197248] ? Thanks!
Reply text: 2.09

Inquiry: In one line, give reported pAMPK/AMPK (ratio) siRNA, unrelated siRNA of the entry O=C(NC1CCCC1)c1ccc(OC2CCN(Cc3cccc(O)c3)CC2)c(Cl)c1 [No. 251327] .
Reply text: 2.85

Inquiry: Read the entry COCCNC(=O)c1ccc(OC2CCN(Cc3cccc4nonc34)CC2)c(Cl)c1 [No. 484140] and write its reported pAMPK/AMPK (ratio) siRNA, unrelated siRNA.
Reply text: 2.34

Inquiry: Consider the compound Cc1ccccc1CN1CCC(Oc2ccc(C(=O)NCc3ccccn3)cc2)CC1 [No. 198637] . State its measured pAMPK/AMPK (ratio) siRNA, unrelated siRNA.
Reply text: 2.24

***
Inquiry: Provide one value: measured pAMPK/AMPK (ratio) siRNA, unrelated siRNA of O=C(NCCc1ccc(Cl)cc1)c1ccc(OC2CCN(Cc3ccccn3)CC2)cc1 [No. 264785]
Reply text: 3.70

Inquiry: State, in one line, measured pAMPK/AMPK (ratio) siRNA, unrelated siRNA of CCOc1cccc(CN2CCC(Oc3ccc(C(=O)NCCOC)cc3Cl)CC2)c1 [No. 214617]
Reply text: 2.21

Inquiry: Return pAMPK/AMPK (ratio) siRNA, unrelated siRNA (reported value) for this compound: COc1cccc(NC(=O)c2ccc(CN3CCN(Cc4ccccc4)CC3)cc2)c1 [No. 103694]
Reply text: 4.67

* * *

experimental target: AdipoR1 (Homo sapiens, UniProt Q96A54)
Sequence (Q96A54 whole entry): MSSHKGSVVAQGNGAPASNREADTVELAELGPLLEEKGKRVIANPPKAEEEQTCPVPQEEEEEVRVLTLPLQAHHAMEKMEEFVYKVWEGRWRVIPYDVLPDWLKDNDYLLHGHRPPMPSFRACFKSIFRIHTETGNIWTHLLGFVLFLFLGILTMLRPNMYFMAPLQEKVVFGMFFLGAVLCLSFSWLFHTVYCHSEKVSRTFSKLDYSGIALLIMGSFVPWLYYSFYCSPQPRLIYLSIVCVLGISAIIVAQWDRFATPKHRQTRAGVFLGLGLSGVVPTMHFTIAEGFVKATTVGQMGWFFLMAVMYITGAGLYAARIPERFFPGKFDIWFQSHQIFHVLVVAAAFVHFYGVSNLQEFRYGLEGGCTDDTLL
protocol text: Measurement of AMPK phosphorylation ability (Assay 1), HEK 293T cells, Western blotting
Assay type: cell-based
Set-up: HEK 293T cells (ATCC; CRL-3216, medium; host or cells: HEK 293T
experimental context: 50 μM, 10 minutes
Procedure: The AMPK phosphorylation ability of the respective compounds according to the present invention was measured by using differentiated C2C12 cells or HEK 293T cells. […] The X-ray film was scanned to take the image, for which the band was measured by using the image analysis software “Image J” to determine the respective amounts of pAMPK and AMPK.
pAMPK/AMPK (%) values for the molecules below.
I only need the number, in %, no unit after it.

Recorded results for 7 molecules are shown here.
Inquiry: Read off the recorded pAMPK/AMPK (%) for COc1ccc(OC)c(CN2CCN(C(=O)CCNC(=O)c3ccc([N+](=O)[O-])cc3)CC2)c1 [Compound 66]
Reply text: 55.80

Inquiry: Identify measured pAMPK/AMPK (%) corresponding to COc1ccc(CN2CCN(C(=O)CCNC(=O)c3ccccc3C)CC2)cc1OC [Compound 50]
Reply text: 71.13

Inquiry: Return the recorded pAMPK/AMPK (%) value; entry: CC(C)(C)c1ccc(C(=O)NCCC(=O)N2CCN(Cc3cccc(O)c3)CC2)cc1 [Compound 52]
Reply text: 85.17

Inquiry: Give the measured pAMPK/AMPK (%) for O=C(NCCC(=O)N1CCN(Cc2cccc(OC(F)(F)F)c2)CC1)c1ccc([N+](=O)[O-])cc1 [Compound 69]
Reply text: 100.79

Inquiry: Give the measured pAMPK/AMPK (%) for O=C(COc1ccc(C(F)(F)F)cc1)NC1CCN(C(=O)c2ccccc2F)CC1 [Compound 34]
Reply text: 80.50

Inquiry: Provide pAMPK/AMPK (%) value for the following molecule: Cc1ccc(C(=O)N2CCC(NC(=O)COc3ccc(C(F)(F)F)cc3)CC2)cc1 [Compound 8]
Reply text: 72.23

Inquiry: Read the entry O=C(COc1ccc(Oc2ccccn2)cc1)NC1CCN(Cc2ccc(F)cc2)CC1 [Compound 48] and write its reported pAMPK/AMPK (%).
Reply text: 85.28

Now examine the next entry.
Inquiry: In one line, give reported pAMPK/AMPK (%) of the entry COc1ccccc1CN1CCN(C(=O)CCNC(=O)c2ccc(Br)cc2)CC1 [Compound 58] .
Reply text: 62.58

* * *

Recorded pAMPK/AMPK (%) values for a group of compounds are listed next.
experimental target: AdipoR1 (Homo sapiens, UniProt Q96A54)
protocol text: Measurement of AMPK phosphorylation ability (Assay 1), HEK 293T cells, Western blotting
Type: cell-based
Set-up: HEK 293T cells (ATCC; CRL-3216, medium; host or cells: HEK 293T
experimental context: 50 μM, 10 minutes
API: value field is a number in %; no unit string.

These solved cases illustrate the format of a correct answer.
Inquiry: Write down measured pAMPK/AMPK (%) (AdipoR1 (Homo sapiens, UniProt Q96A54)) for this compound. `COc1ccc(CN2CCN(C(=O)CCNC(=O)c3ccccc3)CC2)c(OC)c1OC`
Reply text: 55.14

Inquiry: Provide pAMPK/AMPK (%), tested on AdipoR1 (Homo sapiens, UniProt Q96A54), for CCCOc1ccc(OCC(=O)NC2CCN(Cc3ccccc3)C(C)C2)cc1 (centres unmarked) .
Reply text: 69.38

***
Inquiry: Write down measured pAMPK/AMPK (%) (AdipoR1 (Homo sapiens, UniProt Q96A54)) for this compound. `COc1ccc(CN2CCN(C(=O)CCNC(=O)c3ccc([N+](=O)[O-])cc3)CC2)cc1`
Reply text: 69.84

Inquiry: Please respond with reported pAMPK/AMPK (%) (system AdipoR1 (Homo sapiens, UniProt Q96A54)) for `COc1ccccc1CN1CCC(NC(=O)COc2ccc(C)cc2)CC1` .
Reply text: 45.44

Inquiry: Would you please give the reported pAMPK/AMPK (%) of `Cc1ccccc1CN1CCN(C(=O)CCNC(=O)c2ccc([N+](=O)[O-])cc2)CC1` with AdipoR1 (Homo sapiens, UniProt Q96A54)?
Reply text: 68.22

* * *

A collection of molecules and their measured pAMPK/AMPK (%)
experimental target: UniProt Q96A54
protocol text: Measurement of AMPK phosphorylation ability (Assay 1), HEK 293T cells, Western blotting
Assay type: cell-based
Parameters: HEK 293T cells (ATCC; CRL-3216, medium; host or cells: HEK 293T
experimental context: 25 μM, 10 minutes
Answer with a number only, understood to be in %.

Below: 5 molecules and their reported pAMPK/AMPK (%).
Inquiry: Tell me pAMPK/AMPK (%) reported for CC(c1ccccc1)N1CCC(NC(=O)COc2ccc(C(F)(F)F)cc2)CC1 (stereo not drawn) [Compound 9]
Reply text: 23.69

Inquiry: Retrieve pAMPK/AMPK (%) measured for COc1ccc(CN2CCN(C(=O)CCNC(=O)c3ccccc3)CC2)c(OC)c1OC [Compound 51] and print it.
Reply text: 33.33

Inquiry: Write down pAMPK/AMPK (%) measured for item Cc1ccc(OCC(=O)NC2CCN(Cc3ccc(Cl)c(Cl)c3)CC2)cc1 [Compound 30]
Reply text: 122.70

Inquiry: Annotate the molecule COc1ccccc1CN1CCN(C(=O)CCNC(=O)c2ccccc2C)CC1 [Compound 49] with its measured pAMPK/AMPK (%).
Reply text: 42.40

Inquiry: Let me know recorded pAMPK/AMPK (%) for CCOc1ccc(C(=O)N2CCC(NC(=O)COc3ccc([N+](=O)[O-])cc3)CC2)cc1 [Compound 22] , thanks.
Reply text: 61.45

Others:
Inquiry: Determine its reported pAMPK/AMPK (%): O=C(COc1ccc(Oc2ccccn2)cc1)NC1CCN(Cc2ccccc2)CC1 [Compound 45]
Reply text: 67.44

Inquiry: Specify pAMPK/AMPK (%) for CCCOc1ccc(OCC(=O)NC2CCN(Cc3ccccc3)C(C)C2)cc1 (stereo not drawn) [Compound 41] and stop.
Reply text: 62.03

Inquiry: For the molecule CCCOc1ccc(OCC(=O)NC2CCN(C(C)c3ccccc3)CC2)cc1 (stereo not drawn) [Compound 43] , give its measured pAMPK/AMPK (%) value.
Reply text: 77.13

Inquiry: Identify pAMPK/AMPK (%) associated with the molecule COc1ccc(OCC(=O)NC2CCN(Cc3ccc(Cl)c(Cl)c3)CC2)cc1 [Compound 37]
Reply text: 83.83

* * *

experimental target: AdipoR1 (Homo sapiens, UniProt Q96A54)
protocol text: Measurement of AMPK phosphorylation ability (Assay 2), HEK 293T cells with unrelated or AdipoR1 siRNA
Format: cell-based
Design: HEK 293T cells (ATCC; CRL-3216, medium; host or cells: HEK 293T
experimental context: AdipoR1 siRNA
Description: HEK 293T cells (medium; DMEM, 10% FBS) were cultured in a 24-well plate until they reached 60% confluency (37° C., 5% CO2). First, 1 μL of Lipofectamine RNAiMAX and 50 μL of OPTI-MEM were mixed, and then 5 μM siRNA (sense siRNA sequence: […]tt (SEQ ID NO: 1)) and 50 μL of OPTI-MEM were mixed and the resultants were left to stand at room temperature for 5 minutes. […] The respective amounts of pAMPK and AMPK were determined in the same way as in the above Assay 1.
quantity measured: pAMPK/AMPK (ratio) siRNA, AdipoR1 siRNA
Reply numerically in ratio, unit not repeated.

Inquiry: Jot down pAMPK/AMPK (ratio) siRNA, AdipoR1 siRNA (AdipoR1 (Homo sapiens, UniProt Q96A54)) of CCc1ccc(OCC(=O)NC2CCN(C(C)c3ccccc3)CC2)cc1 (stereo not shown) .
Reply text: 2.61

Inquiry: Specify the recorded pAMPK/AMPK (ratio) siRNA, AdipoR1 siRNA for `O=C(COc1ccc(C(=O)c2ccccc2)cc1)NC1CCN(Cc2ccc(Cl)cc2)CC1` , system: AdipoR1 (Homo sapiens, UniProt Q96A54).
Reply text: 2.47

Inquiry: # return pAMPK/AMPK (ratio) siRNA, AdipoR1 siRNA of `NC(=O)c1ccc(OCC(=O)NC2CCN(Cc3ccc(Cl)c(Cl)c3)CC2)cc1` (system: AdipoR1 (Homo sapiens, UniProt Q96A54))
Reply text: 3.75

Now turn to the next molecule.
Inquiry: Look up and report pAMPK/AMPK (ratio) siRNA, AdipoR1 siRNA, with AdipoR1 (Homo sapiens, UniProt Q96A54) as system, for `CCOc1ccc(OCC(=O)NC2CCN(Cc3ccc(Cl)c(Cl)c3)CC2)cc1`
Reply text: 2.43
